The reported numbers originate from patent US9517994B2.

biological target: E. coli RNA polymerase σ70 holoenzyme (Escherichia coli, UniProt P0A8T7+P0A8V2); experiment: Fluorescence-detected assay of inhibition of Escherichia coli RNA polymerase; settings: RiboGreen fluorescence, read-out: IC50 Ec RNAP
Sequence (P0A8V2 whole entry): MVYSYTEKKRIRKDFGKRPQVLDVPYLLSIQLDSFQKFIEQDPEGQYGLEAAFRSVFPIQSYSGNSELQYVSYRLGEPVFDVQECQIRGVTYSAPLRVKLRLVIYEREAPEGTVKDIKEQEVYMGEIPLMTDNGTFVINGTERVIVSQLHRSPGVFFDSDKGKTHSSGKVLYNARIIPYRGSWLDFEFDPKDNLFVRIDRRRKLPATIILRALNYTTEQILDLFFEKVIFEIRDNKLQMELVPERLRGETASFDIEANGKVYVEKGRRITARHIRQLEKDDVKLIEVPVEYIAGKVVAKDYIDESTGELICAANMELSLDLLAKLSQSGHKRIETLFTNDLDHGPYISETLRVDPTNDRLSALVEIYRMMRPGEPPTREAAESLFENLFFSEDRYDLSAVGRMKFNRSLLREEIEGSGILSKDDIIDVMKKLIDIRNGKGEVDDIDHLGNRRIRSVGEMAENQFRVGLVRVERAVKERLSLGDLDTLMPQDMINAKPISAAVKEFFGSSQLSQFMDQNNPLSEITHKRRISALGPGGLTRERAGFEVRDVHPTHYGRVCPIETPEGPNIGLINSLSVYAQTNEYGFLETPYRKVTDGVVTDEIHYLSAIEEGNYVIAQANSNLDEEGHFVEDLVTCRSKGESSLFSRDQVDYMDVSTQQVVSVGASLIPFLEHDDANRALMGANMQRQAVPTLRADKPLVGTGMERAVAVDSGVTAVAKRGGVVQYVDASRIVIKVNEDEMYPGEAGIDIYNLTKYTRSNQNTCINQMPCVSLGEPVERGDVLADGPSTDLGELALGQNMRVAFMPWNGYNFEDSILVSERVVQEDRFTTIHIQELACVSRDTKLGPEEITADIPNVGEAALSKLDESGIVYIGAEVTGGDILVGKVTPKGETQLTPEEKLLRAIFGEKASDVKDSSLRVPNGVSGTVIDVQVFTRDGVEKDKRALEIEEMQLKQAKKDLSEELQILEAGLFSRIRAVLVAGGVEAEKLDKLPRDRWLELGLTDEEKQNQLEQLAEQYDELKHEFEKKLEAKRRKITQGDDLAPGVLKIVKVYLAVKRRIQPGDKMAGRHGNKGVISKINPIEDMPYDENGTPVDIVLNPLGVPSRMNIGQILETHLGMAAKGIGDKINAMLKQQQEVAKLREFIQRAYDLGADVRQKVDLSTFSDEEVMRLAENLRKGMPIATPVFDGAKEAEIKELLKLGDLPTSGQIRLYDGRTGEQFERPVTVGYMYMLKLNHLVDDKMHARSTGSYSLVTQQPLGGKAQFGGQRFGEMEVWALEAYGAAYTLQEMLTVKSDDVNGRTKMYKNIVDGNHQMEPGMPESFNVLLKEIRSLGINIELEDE
Sequence (P0A8T7 whole entry): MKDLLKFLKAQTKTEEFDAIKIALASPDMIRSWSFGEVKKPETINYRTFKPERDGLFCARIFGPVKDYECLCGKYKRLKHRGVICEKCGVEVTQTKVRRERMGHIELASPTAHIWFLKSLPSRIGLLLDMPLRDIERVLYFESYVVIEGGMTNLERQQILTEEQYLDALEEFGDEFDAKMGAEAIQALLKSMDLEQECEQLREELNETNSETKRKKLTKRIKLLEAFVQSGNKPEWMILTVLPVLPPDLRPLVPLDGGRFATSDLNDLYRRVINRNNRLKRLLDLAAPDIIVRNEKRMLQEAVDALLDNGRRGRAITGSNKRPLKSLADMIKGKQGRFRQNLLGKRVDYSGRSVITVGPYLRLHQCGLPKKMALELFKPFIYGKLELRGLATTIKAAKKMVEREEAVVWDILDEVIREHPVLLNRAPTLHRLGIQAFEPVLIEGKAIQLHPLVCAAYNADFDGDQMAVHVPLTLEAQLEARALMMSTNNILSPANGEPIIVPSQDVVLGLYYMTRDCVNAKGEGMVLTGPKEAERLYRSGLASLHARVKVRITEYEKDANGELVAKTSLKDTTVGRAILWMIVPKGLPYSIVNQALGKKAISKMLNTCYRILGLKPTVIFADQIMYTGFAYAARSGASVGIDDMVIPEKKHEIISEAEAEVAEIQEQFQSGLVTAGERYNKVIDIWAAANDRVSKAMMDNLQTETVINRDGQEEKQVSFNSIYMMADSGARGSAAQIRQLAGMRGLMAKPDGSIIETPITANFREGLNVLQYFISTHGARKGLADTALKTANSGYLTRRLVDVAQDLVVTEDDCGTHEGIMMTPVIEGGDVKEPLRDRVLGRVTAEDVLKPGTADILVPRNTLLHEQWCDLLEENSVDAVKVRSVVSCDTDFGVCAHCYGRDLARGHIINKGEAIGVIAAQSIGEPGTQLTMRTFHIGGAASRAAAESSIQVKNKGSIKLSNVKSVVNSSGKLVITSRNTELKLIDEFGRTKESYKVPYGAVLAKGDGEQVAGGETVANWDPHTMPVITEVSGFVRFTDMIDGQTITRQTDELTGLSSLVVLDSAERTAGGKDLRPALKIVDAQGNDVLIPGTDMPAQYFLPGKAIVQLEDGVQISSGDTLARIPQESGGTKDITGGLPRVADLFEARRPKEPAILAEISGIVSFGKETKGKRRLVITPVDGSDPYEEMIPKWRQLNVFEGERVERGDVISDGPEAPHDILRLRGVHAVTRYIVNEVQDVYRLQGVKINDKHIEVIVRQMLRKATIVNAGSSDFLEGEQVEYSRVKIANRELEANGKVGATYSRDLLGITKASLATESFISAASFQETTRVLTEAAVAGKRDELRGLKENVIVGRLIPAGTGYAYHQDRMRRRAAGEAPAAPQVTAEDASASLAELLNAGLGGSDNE
Sequence (P0A7Z4 whole entry partner): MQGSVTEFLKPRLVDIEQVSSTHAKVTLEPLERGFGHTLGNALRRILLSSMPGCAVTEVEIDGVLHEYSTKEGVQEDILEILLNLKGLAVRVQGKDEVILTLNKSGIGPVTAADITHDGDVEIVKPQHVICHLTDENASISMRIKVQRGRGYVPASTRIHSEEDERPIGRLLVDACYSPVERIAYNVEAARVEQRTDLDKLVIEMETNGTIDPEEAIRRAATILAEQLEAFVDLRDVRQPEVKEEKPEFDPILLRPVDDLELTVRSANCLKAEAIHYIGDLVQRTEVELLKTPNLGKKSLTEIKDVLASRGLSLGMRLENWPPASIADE
Sequence (P0A800 whole entry partner): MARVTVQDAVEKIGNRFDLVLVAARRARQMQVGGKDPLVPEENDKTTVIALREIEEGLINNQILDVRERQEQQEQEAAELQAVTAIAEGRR
Sequence (P00579 whole entry partner): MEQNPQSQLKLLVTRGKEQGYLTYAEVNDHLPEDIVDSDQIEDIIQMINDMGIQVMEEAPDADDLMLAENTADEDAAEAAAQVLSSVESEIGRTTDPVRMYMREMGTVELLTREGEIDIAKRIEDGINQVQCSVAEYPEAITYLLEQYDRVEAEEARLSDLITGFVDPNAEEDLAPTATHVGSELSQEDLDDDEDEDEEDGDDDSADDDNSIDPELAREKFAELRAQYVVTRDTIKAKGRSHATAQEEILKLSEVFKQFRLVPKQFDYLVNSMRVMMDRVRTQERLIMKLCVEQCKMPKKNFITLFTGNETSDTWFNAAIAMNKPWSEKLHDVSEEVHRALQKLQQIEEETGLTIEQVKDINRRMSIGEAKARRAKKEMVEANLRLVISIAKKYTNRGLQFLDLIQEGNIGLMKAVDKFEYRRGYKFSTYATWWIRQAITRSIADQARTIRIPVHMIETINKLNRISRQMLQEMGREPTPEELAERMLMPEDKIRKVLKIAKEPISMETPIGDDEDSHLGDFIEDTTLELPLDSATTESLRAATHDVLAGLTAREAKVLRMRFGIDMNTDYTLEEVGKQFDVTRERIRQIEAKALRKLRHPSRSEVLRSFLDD
pIC50: −log10 of the molar value.
measurement kind: pIC50

                                    compound  reported_measurement
 0  O=C(CCc1ccc(F)cc1)c1c(O)cc(O)cc1O [OMTK21]                  5.62
 1  O=C(CCc1ccccc1C(F)(F)F)c1c(O)cc(O)cc1O [0MTK31]                  5.72
 2  O=C(CCc1ccc(C(F)(F)F)cc1C(F)(F)F)c1c(O)cc(O)cc1O [0MTK32]                  5.70
 3  O=C(CCc1ccc(Cl)cc1)c1c(O)cc(O)cc1O [0MTK13]                  5.96
 4  CC(C)c1ccc(CCC(=O)c2c(O)cc(O)cc2O)cc1 [0MTK27]                  5.64
 5  CCc1ccc(CCC(=O)c2c(O)cc(O)cc2O)cc1 [0MTK26]                  5.82
 6  CC(C)(C)c1ccc(CCC(=O)c2c(O)cc(O)cc2O)cc1 [0MTK28]                  5.57
 7  O=C(CCc1ccccc1Cl)c1c(O)cc(O)cc1O [0MTK11]                  5.46
 8  COc1ccccc1CCC(=O)c1c(O)cc(O)cc1O [OMTK14]                  5.57
 9  COc1cccc(CCC(=O)c2c(O)cc(O)cc2O)c1 [OMTK15]                  5.52
10  O=C(CCc1ccc(Br)cc1)c1c(O)cc(O)cc1O [OMTK22]                  5.89
11  O=C(CCc1cccc(Cl)c1)c1c(O)cc(O)cc1O [0MTK12]                  5.59
12  Cc1cc(F)ccc1CCC(=O)c1c(O)cc(O)cc1O [0MTK30]                  5.74
13  O=C(CCc1ccc(C(F)(F)F)cc1)c1c(O)cc(O)cc1O [OMTK23]                  5.80
14  Cc1ccccc1CCC(=O)c1c(O)cc(O)cc1O [OMTK18]                  5.57
